Recorded values, source patent EP4671273A1.

- test.system: T1, Recombinant hIL-21-Fc (AcroBiosystems) (human, UniProt Q9HBE4 30-162)
- T1 construct: bought; also called rhIL-21; not shown: Fc of the bought reagent, not described
- T1 sequence (Q9HBE4 30-162): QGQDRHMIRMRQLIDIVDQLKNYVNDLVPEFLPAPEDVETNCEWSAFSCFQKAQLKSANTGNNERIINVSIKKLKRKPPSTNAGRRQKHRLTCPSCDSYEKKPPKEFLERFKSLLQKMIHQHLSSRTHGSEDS
- procedure.summary: SPR, Fab on captured rhIL-21-Fc
Output T for records whose kon is lower than 400000 M⁻¹ s⁻¹, F for records at or above 400000 M⁻¹ s⁻¹.

Previously resolved entries follow.
ZAP122m21 Fab (Fab, V domains shown, Fab) VH: QVQLQESGPGLVKPSETLSLTCTVSGGSISSDFWGWIRQPPGKGLEWIGYISSRGSTNYNPSLKRRVTISVDTSRNQFSLKLSSVTAADTAVYYCARSAAVTDFDFWGQGTLVTVSS VL: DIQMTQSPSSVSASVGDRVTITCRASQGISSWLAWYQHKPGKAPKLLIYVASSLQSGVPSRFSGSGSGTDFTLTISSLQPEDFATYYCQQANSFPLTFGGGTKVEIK ... F
ZAP122m5 Fab (Fab, V domains shown, Fab) VH: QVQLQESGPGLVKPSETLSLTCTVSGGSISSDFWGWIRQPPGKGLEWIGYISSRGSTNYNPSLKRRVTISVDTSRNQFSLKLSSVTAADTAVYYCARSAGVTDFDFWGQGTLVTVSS VL: DIQMTQSPSSVSASVGDRVTITCRASQGISSWLAWYQHKPGKAPKLLIYVASSLQSGVPSRFSGSGSGTDFTLTISSLQPEDFATYYCQAANSFPLTFGGGTKVEIK ... T
ZAP122p2 Fab (Fab, V domains shown, Fab) VH: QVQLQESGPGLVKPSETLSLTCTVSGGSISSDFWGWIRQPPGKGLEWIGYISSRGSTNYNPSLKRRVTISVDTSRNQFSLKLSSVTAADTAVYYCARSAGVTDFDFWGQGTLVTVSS VL: DIQMTQSPSSVSASVGDRVTITCRASQGISSWLAWYQHKPGKAPKLLIYVASSLQSGVPSRFSGSGSGTDFTLTISSLQPEDFATYYCQQASSFPLTFGGGTKVEIK ... T
ZAP122p1 Fab (Fab, V domains shown, Fab) VH: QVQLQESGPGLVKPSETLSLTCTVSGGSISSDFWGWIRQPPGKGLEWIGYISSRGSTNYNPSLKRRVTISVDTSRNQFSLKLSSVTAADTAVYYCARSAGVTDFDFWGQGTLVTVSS VL: DIQMTQSPSSVSASVGDRVTITCRASQGISSWLAWYQHKPGKAPKLLIYVASSLQSGVPSRFSGSGSGTDFTLTISSLQPEDFATYYCQQAQSFPLTFGGGTKVEIK ... T
ZAP122m16 Fab (Fab, V domains shown, Fab) VH: QVQLQESGPGLVKPSETLSLTCTVSGGSISSDFWGWIRQPPGKGLEWIGYISYRGSTNYNPSLKRRVTISVDTSRNQFSLKLSSVTAADTAVYYCARSAGVTDFDFWGQGTLVTVSS VL: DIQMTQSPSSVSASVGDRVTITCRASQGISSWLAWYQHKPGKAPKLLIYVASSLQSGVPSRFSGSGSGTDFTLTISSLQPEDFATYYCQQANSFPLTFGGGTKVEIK ... T
ZAP122m12 Fab (Fab, V domains shown, Fab) VH: QVQLQESGPGLVKPSETLSLTCTVSGGSISSYFWGWIRQPPGKGLEWIGYISSRGSTNYNPSLKRRVTISVDTSRNQFSLKLSSVTAADTAVYYCARSAGVTDFDFWGQGTLVTVSS VL: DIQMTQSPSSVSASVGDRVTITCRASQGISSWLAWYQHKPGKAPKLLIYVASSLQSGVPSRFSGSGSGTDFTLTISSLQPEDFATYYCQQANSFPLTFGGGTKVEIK ... F
ZAP122m13 Fab (Fab, V domains shown, Fab) VH: QVQLQESGPGLVKPSETLSLTCTVSGGSISSDYWGWIRQPPGKGLEWIGYISSRGSTNYNPSLKRRVTISVDTSRNQFSLKLSSVTAADTAVYYCARSAGVTDFDFWGQGTLVTVSS VL: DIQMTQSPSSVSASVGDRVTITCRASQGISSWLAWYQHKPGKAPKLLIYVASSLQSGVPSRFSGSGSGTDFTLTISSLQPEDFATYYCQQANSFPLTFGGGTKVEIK ... T
ZAP122m18 Fab (Fab, V domains shown, Fab; also called clone m18) VH: QVQLQESGPGLVKPSETLSLTCTVSGGSISSDFWGWIRQPPGKGLEWIGYISSRGSTNYNPSLKSRVTISVDTSRNQFSLKLSSVTAADTAVYYCARSAGVTDFDFWGQGTLVTVSS VL: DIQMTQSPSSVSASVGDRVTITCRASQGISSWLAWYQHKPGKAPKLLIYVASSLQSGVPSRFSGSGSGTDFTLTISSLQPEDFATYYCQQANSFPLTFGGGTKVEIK ... T

Turning now to a further record.
Strictly below 400000 M⁻¹ s⁻¹ in kon? ZAP122m11 Fab (Fab, V domains shown, Fab) VH: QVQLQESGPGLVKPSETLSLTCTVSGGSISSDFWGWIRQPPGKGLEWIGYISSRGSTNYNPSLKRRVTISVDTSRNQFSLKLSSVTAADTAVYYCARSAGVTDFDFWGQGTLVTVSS VL: DIQMTQSPSSVSASVGDRVTITCRASQGISSWLAWYQHKPGKAPKLLIYVASSLQSGVPSRFSGSGSGTDFTLTISSLQPEDFATYYCQQANSFPLAFGGGTKVEIK T
